Test system: CCRF-CEM
Assay: Growth inhibitory activity against human lymphoblastic leukemia cells(CCRF-CEM)
Format: functional
Conditions: read-out: ID50 (the source's name)
The entries below are paired with their reported IC50.
Report the figure in mg/L without appending any unit label.

{"columns": ["structure as smiles", "IC50, mg/L"],
 "data": [
  ["Cc1ccc(C(=O)N[C@@H]2C(=O)N[C@H](C(C)C)C(=O)N3CCC[C@H]3C(=O)N(C)CC(=O)N(C)[C@@H](C(C)C)C(=O)O[C@@H]2C)c2c1Oc1c(c(C(=O)N[C@@H]3C(=O)N[C@H](C(C)C)C(=O)N4CCC[C@H]4C(=O)N(C)CC(=O)N(C)[C@@H](C(C)C)C(=O)O[C@@H]3C)c3nc(-c4ccccc4)oc3c1C)N2", 9],
  ["Cc1ccc(C(=O)N[C@@H]2C(=O)N[C@H](C(C)C)C(=O)N3CCC[C@H]3C(=O)N(C)CC(=O)N(C)[C@@H](C(C)C)C(=O)O[C@@H]2C)c2c1Oc1c(c(C(=O)N[C@@H]3C(=O)N[C@H](C(C)C)C(=O)N4CCC[C@H]4C(=O)N(C)CC(=O)N(C)[C@@H](C(C)C)C(=O)O[C@@H]3C)c3nc(-c4cccc(Cl)c4)c(=O)oc3c1C)N2", 1.6]
]}

Input line: Endpoint output: IC50 of Cc1ccc(C(=O)N[C@@H]2C(=O)N[C@H](C(C)C)C(=O)N3CCC[C@H]3C(=O)N(C)CC(=O)N(C)[C@@H](C(C)C)C(=O)O[C@@H]2C)c2c1Oc1c(c(C(=O)N[C@@H]3C(=O)N[C@H](C(C)C)C(=O)N4CCC[C@H]4C(=O)N(C)CC(=O)N(C)[C@@H](C(C)C)C(=O)O[C@@H]3C)c3nc(-c4ccc(Cl)cc4)c(=O)oc3c1C)N2 . Value?
Output line: 1.6

----------
Test system: CCRF-CEM
Test: Growth inhibitory activity against human lymphoblastic leukemia cells(CCRF-CEM)
Format: functional
Conditions: read-out: ID50 (the source's name)
Starred links: 1 amine or outer side, 2 acyl side, 3 side chain; linkers in the order of their positions; H or OH if unused. Positions of bridges follow the written chain, without caps; N, C: chain ends. Non-standard residues stand in square brackets, D forms with d. Residues, ends and D or L forms follow the SMILES beside them. Chains are numbered I, II in the order given. Actinocin(1to9) = Cc1c2oc3c(C)ccc(C(=O)[*:2])c3nc-2c(C(=O)[*:1])c(N)c1=O; NMeV = CN[C@H](C(=O)O)C(C)C; Sar = CNCC(=O)O
Label fulfilled when IC50 is strictly below 2 µg/mL; otherwise label not fulfilled.

Solved entries (count: 6):
{"columns": ["compound", "category label"],
 "data": [
  ["Cc1ccc(C(=O)N[C@@H]2C(=O)N[C@H](C(C)C)C(=O)N3CCC[C@H]3C(=O)N(C)CC(=O)N(C)[C@@H](C(C)C)C(=O)O[C@@H]2C)c2c1Oc1c(c(C(=O)N[C@@H]3C(=O)N[C@H](C(C)C)C(=O)N4CCC[C@H]4C(=O)N(C)CC(=O)N(C)[C@@H](C(C)C)C(=O)O[C@@H]3C)c3nc(-c4c(F)c(F)c(F)c(F)c4F)c(=O)oc3c1C)N2", "fulfilled"],
  ["Cc1c2oc3c(C)c4oc(-c5ccccc5)nc4c(C(=O)N[C@@H]4C(=O)N[C@H](C(C)C)C(=O)N5CCC[C@H]5C(=O)N(C)CC(=O)N(C)[C@@H](C(C)C)C(=O)O[C@@H]4C)c3nc-2c(C(=O)N[C@@H]2C(=O)N[C@H](C(C)C)C(=O)N3CCC[C@H]3C(=O)N(C)CC(=O)N(C)[C@@H](C(C)C)C(=O)O[C@@H]2C)cc1=O", "fulfilled"],
  ["Cc1nc2c(C(=O)N[C@@H]3C(=O)N[C@H](C(C)C)C(=O)N4CCC[C@H]4C(=O)N(C)CC(=O)N(C)[C@@H](C(C)C)C(=O)O[C@@H]3C)c3c(c(C)c2o1)Oc1c(C)ccc(C(=O)N[C@@H]2C(=O)N[C@H](C(C)C)C(=O)N4CCC[C@H]4C(=O)N(C)CC(=O)N(C)[C@@H](C(C)C)C(=O)O[C@@H]2C)c1N3", "not fulfilled"],
  ["Cc1ccc(C(=O)N[C@@H]2C(=O)N[C@H](C(C)C)C(=O)N3CCC[C@H]3C(=O)N(C)CC(=O)N(C)[C@@H](C(C)C)C(=O)O[C@@H]2C)c2c1Oc1c(c(C(=O)N[C@@H]3C(=O)N[C@H](C(C)C)C(=O)N4CCC[C@H]4C(=O)N(C)CC(=O)N(C)[C@@H](C(C)C)C(=O)O[C@@H]3C)c3nc(-c4ccccc4)c(=O)oc3c1C)N2", "fulfilled"],
  ["CCCCCCc1nc2c(C(=O)N[C@@H]3C(=O)N[C@H](C(C)C)C(=O)N4CCC[C@H]4C(=O)N(C)CC(=O)N(C)[C@@H](C(C)C)C(=O)O[C@@H]3C)c3c(c(C)c2oc1=O)Oc1c(C)ccc(C(=O)N[C@@H]2C(=O)N[C@H](C(C)C)C(=O)N4CCC[C@H]4C(=O)N(C)CC(=O)N(C)[C@@H](C(C)C)C(=O)O[C@@H]2C)c1N3", "not fulfilled"],
  ["Cc1ccc(C(=O)N[C@@H]2C(=O)N[C@H](C(C)C)C(=O)N3CCC[C@H]3C(=O)N(C)CC(=O)N(C)[C@@H](C(C)C)C(=O)O[C@@H]2C)c2c1Oc1c(c(C(=O)N[C@@H]3C(=O)N[C@H](C(C)C)C(=O)N4CCC[C@H]4C(=O)N(C)CC(=O)N(C)[C@@H](C(C)C)C(=O)O[C@@H]3C)c3nc(-c4ccc5ccccc5c4)c(=O)oc3c1C)N2", "fulfilled"]
]}

Input line: Is IC50 strictly under 2 µg/mL for the entry Cc1ccc(C(=O)N[C@@H]2C(=O)N[C@H](C(C)C)C(=O)N3CCC[C@H]3C(=O)N(C)CC(=O)N(C)[C@@H](C(C)C)C(=O)O[C@@H]2C)c2c1Oc1c(c(C(=O)N[C@@H]3C(=O)N[C@H](C(C)C)C(=O)N4CCC[C@H]4C(=O)N(C)CC(=O)N(C)[C@@H](C(C)C)C(=O)O[C@@H]3C)c3nc(-c4ccc(Cl)cc4Cl)c(=O)oc3c1C)N2 ?
Output line: not fulfilled

Input line: Is IC50 strictly under 2 µg/mL for the entry Cc1ccc(C(=O)N[C@@H]2C(=O)N[C@H](C(C)C)C(=O)N3CCC[C@H]3C(=O)N(C)CC(=O)N(C)[C@@H](C(C)C)C(=O)O[C@@H]2C)c2c1Oc1c(c(C(=O)N[C@@H]3C(=O)N[C@H](C(C)C)C(=O)N4CCC[C@H]4C(=O)N(C)CC(=O)N(C)[C@@H](C(C)C)C(=O)O[C@@H]3C)c3nc(-c4c(F)c(F)c(F)c(F)c4F)oc3c1C)N2 ?
Output line: not fulfilled

Input line: Is IC50 strictly under 2 µg/mL for the entry Cc1nc2c(C(=O)N[C@@H]3C(=O)N[C@H](C(C)C)C(=O)N4CCC[C@H]4C(=O)N(C)CC(=O)N(C)[C@@H](C(C)C)C(=O)O[C@@H]3C)c3nc4c(C(=O)N[C@@H]5C(=O)N[C@H](C(C)C)C(=O)N6CCC[C@H]6C(=O)N(C)CC(=O)N(C)[C@@H](C(C)C)C(=O)O[C@@H]5C)cc(=O)c(C)c-4oc3c(C)c2o1 ?
Output line: fulfilled

Input line: Is IC50 strictly under 2 µg/mL for the entry Cc1c2oc3c(C)ccc(C(=O)N[C@@H]4C(=O)N[C@H](C(C)C)C(=O)N5CCC[C@H]5C(=O)N(C)CC(=O)N(C)[C@@H](C(C)C)C(=O)O[C@@H]4C)c3nc-2c(C(=O)N[C@@H]2C(=O)N[C@H](C(C)C)C(=O)N3CCC[C@H]3C(=O)N(C)CC(=O)N(C)[C@@H](C(C)C)C(=O)O[C@@H]2C)c(N)c1=O [DACTINOMYCIN] (I: T[dV]P[Sar][NMeV] / II: T[dV]P[Sar][NMeV]; ester I:1-I:C, II:1-II:C; linker I:N-II:N via Actinocin(1to9)) ?
Output line: fulfilled

Input line: Is IC50 strictly under 2 µg/mL for the entry Cc1ccc(C(=O)N[C@@H]2C(=O)N[C@H](C(C)C)C(=O)N3CCC[C@H]3C(=O)N(C)CC(=O)N(C)[C@@H](C(C)C)C(=O)O[C@@H]2C)c2c1Oc1c(c(C(=O)N[C@@H]3C(=O)N[C@H](C(C)C)C(=O)N4CCC[C@H]4C(=O)N(C)CC(=O)N(C)[C@@H](C(C)C)C(=O)O[C@@H]3C)c3nc(-c4ccccc4Cl)c(=O)oc3c1C)N2 ?
Output line: fulfilled

Input line: Is IC50 strictly under 2 µg/mL for the entry Cc1c2oc3c(C)c4oc(-c5c(F)c(F)c(F)c(F)c5F)nc4c(C(=O)N[C@@H]4C(=O)N[C@H](C(C)C)C(=O)N5CCC[C@H]5C(=O)N(C)CC(=O)N(C)[C@@H](C(C)C)C(=O)O[C@@H]4C)c3nc-2c(C(=O)N[C@@H]2C(=O)N[C@H](C(C)C)C(=O)N3CCC[C@H]3C(=O)N(C)CC(=O)N(C)[C@@H](C(C)C)C(=O)O[C@@H]2C)cc1=O ?
Output line: fulfilled

Hello, the source for this data is ChEMBL document CHEMBL1122395, in case you need it.
